# Test system: normal human dermal fibroblasts (NHDF)
# Assay Text: MTT cell viability assay, NHDF
# Type: cell-based
# Assay Setup: Homo sapiens, NHDF, 72 h, 72 h of incubation, MTT, protected from light
pIC50: −log10 of the molar value.

{"Sample Smiles": "CN1/C(=C/c2sc3ccccc3[n+]2C)Sc2ccccc21", "pIC50": 6.11}
{"Sample Smiles": "CN1C(=Cc2ccc3ccccc3[n+]2C)C=Cc2ccccc21.[I-]", "pIC50": 6.23}
{"Sample Smiles": "C(=C1Sc2ccccc2N1Cc1ccccc1)c1sc2ccccc2[n+]1Cc1ccccc1.[I-]", "pIC50": 6.03}

====

# System: normal human dermal fibroblasts (NHDF)
# Assay Text: MTT cell viability assay, NHDF
# Type: cell-based
# Assay Setup: 72 h of incubation, MTT, protected from light; listed as 5
pIC50: −log10 of the molar value.

{"Sample Smiles": "CN1C(=Cc2sc3ccccc3[n+]2C)Sc2ccccc21.Cc1ccc(S(=O)(=O)[O-])cc1", "pIC50": 6.17}
